// provenance: paper PMC9458217

- Tested on: RAW 264.7 monocyte/macrophage murine cells
- METHOD_NOTES: MTT cytotoxicity on RAW 264.7 cells
- Format: cell-based
- STATED_CONDITIONS: Mus musculus, RAW264.7; RAW 264.7, MTT, 72 h of incubation; read-out: IC50
Reported values of IC50 for individual entries
REPORTED_PROPERTY: IC50

INSERT INTO measurements (molecule, system_tested, recorded_value) VALUES
  ('CC1(C)CCC[C@]2(C)c3cc(O)c(CO)cc3CC[C@@H]12', 'RAW 264.7 monocyte/macrophage murine cells', '13.9 mg/L'),
  ('CC1(C)CCC[C@]2(C)c3cc(O)c(C=O)cc3CC[C@@H]12', 'RAW 264.7 monocyte/macrophage murine cells', '5.87 mg/L'),
  ('COC(=O)c1ccc2c(c1C(=O)OC)CC[C@H]1C(C)(C)CCC[C@]21C', 'RAW 264.7 monocyte/macrophage murine cells', '24.7 mg/L'),
  ('COC(=O)C1=C(C(=O)OC)C2(C)CC[C@H]3C(C)(C)CCC[C@]3(C)C2=CC1=O (stereo partly shown)', 'RAW 264.7 monocyte/macrophage murine cells', '26.7 mg/L'),
  ('Cc1c(CO)c(O)cc2c1CC[C@H]1C(C)(C)CCC[C@]21C', 'RAW 264.7 monocyte/macrophage murine cells', '74.7 mg/L'),
  ('CC1(C)CCC[C@]2(C)c3cc4c(cc3CC[C@@H]12)CC(=O)O4', 'RAW 264.7 monocyte/macrophage murine cells', '53.9 mg/L'),
  ('COC(=O)c1c(O)cc2c(c1C)CC[C@H]1C(C)(C)CCC[C@]21C', 'RAW 264.7 monocyte/macrophage murine cells', '13.1 mg/L'),
  ('Cc1c(C=O)c(O)cc2c1CC[C@H]1C(C)(C)CCC[C@]21C', 'RAW 264.7 monocyte/macrophage murine cells', '8.34 mg/L'),
  ('COC(=O)C1=C(C(=O)OC)C2(C)CC[C@H]3C(C)(C)CCC[C@]3(C)C2=CC1 (stereo partly shown)', 'RAW 264.7 monocyte/macrophage murine cells', '64.6 mg/L'),
  ('COC(=O)c1c(O)cc2c(c1C(=O)OC)CC[C@H]1C(C)(C)CCC[C@]21C', 'RAW 264.7 monocyte/macrophage murine cells', '7.49 mg/L');
